FYI, the data here is from ChEMBL document CHEMBL2074278.

Biological target: ATP-binding cassette sub-family C member 2 (Rattus norvegicus, UniProt Q63120)
Sequence (Q63120 whole entry): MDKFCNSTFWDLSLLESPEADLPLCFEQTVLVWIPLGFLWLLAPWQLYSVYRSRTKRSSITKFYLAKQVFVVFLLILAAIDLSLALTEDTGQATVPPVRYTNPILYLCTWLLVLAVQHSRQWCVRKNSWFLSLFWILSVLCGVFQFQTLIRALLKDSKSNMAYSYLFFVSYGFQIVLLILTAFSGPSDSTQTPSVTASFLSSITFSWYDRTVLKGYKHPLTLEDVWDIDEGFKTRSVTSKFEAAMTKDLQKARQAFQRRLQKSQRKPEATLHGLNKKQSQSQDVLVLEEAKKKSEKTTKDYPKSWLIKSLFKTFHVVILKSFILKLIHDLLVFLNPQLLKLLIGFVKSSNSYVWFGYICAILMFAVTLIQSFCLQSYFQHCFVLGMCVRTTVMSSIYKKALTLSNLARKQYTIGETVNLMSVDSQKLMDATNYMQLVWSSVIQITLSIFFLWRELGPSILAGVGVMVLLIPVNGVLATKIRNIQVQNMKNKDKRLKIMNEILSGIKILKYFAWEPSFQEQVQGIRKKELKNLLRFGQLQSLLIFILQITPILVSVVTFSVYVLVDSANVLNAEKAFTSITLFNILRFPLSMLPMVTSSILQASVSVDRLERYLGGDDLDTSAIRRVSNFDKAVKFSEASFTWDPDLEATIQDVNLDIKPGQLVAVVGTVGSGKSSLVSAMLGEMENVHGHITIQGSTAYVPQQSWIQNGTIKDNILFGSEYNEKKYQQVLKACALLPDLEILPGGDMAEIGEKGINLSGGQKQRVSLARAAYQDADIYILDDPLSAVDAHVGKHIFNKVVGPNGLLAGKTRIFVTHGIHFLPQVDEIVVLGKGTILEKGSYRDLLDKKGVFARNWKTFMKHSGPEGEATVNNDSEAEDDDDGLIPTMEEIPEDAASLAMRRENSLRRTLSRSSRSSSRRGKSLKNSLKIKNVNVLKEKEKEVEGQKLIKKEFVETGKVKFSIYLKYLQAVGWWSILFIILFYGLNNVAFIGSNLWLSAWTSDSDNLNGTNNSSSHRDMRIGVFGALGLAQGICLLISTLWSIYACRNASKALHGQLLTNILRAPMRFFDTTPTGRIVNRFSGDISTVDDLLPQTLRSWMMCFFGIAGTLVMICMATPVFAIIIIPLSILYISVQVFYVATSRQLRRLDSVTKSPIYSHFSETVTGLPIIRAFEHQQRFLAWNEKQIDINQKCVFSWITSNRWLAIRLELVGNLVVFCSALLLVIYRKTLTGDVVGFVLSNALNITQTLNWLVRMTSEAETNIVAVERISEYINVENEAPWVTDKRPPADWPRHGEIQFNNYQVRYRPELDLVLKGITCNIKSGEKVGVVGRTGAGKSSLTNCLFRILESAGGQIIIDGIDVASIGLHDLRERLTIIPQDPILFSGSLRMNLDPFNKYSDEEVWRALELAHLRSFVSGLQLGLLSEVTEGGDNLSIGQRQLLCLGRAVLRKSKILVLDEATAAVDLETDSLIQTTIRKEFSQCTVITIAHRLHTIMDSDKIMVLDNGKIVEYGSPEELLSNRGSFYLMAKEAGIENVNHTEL
Assay: TP_TRANSPORTER: inhibition of Temocaprilat uptake in bile canalicular membrane vesicles from SD rat
Format: functional, cell membranes, Sprague-Dawley, Bile canalicular membrane vesicle
observed property: pKi
Please express pKi as -log10 of the molar concentration.

[Q] // lookup pKi for N[C@@H](CCC(=O)N[C@H](CSc1ccc([N+](=O)[O-])cc1[N+](=O)[O-])C(=O)NCC(=O)O)C(=O)O
[A] 4.59

###

Target: ATP-binding cassette sub-family C member 2 (Rattus norvegicus, UniProt Q63120)
Assay: TP_TRANSPORTER: inhibition of DNP-SG uptake in bile canalicular membrane vesicles from SD rat
Type: functional, cell membranes, Sprague-Dawley, Bile canalicular membrane vesicle
observed property: Ki (µM)
Report as a plain number; the unit µM is understood.

[Q] Entry O=C(O)CN1C[C@@H](c2cccs2)SC[C@H](N[C@@H](CCc2ccccc2)C(=O)O)C1=O [TEMOCAPRILAT] : reported Ki = ?
[A] 343
